MEASURED_TARGET: Carbonic anhydrase 9 (Homo sapiens, UniProt Q16790)
pKi: −log10 of the molar value.

# COMPOUND, MEASURED_TARGET, pKi
data = [
    ("CC(C)(C)n1c(=O)cc(-c2cc3ccccc3s2)[s+]1[O-] (stereo not given)", "Carbonic anhydrase 9 (Homo sapiens, UniProt Q16790)", 6.88),
    ("O=c1cc(-c2cn(S(=O)(=O)c3ccccc3)c3ccccc23)[s+]([O-])[nH]1 (stereo not given)", "Carbonic anhydrase 9 (Homo sapiens, UniProt Q16790)", 7.00),
    ("CC(C)(C)OC(=O)n1c(-c2cc(=O)n(C(C)(C)C)[s+]2[O-])cc2ccccc21 (stereo not given)", "Carbonic anhydrase 9 (Homo sapiens, UniProt Q16790)", 7.32),
    ("CC(C)(C)n1c(=O)cc(-c2cccs2)[s+]1[O-] (stereo not given)", "Carbonic anhydrase 9 (Homo sapiens, UniProt Q16790)", 7.31),
    ("COc1cc(-c2cc(=O)n(C(C)(C)C)[s+]2[O-])cc(OC)c1OC (stereo not given)", "Carbonic anhydrase 9 (Homo sapiens, UniProt Q16790)", 6.63),
]

* * *

MEASURED_TARGET: Carbonic anhydrase 9 (Homo sapiens, UniProt Q16790)
pKi: −log10 of the molar value.
We use 7 as the dividing line for pKi: on or above the line is Y, below is N.

# COMPOUND, LABEL_VALUE
data = [
    ("CC(C)(C)n1c(=O)cc(-c2ccccc2)[s+]1[O-] (stereo not given)", "Y"),
    ("CC(C)(C)N1C(=O)C=C(c2cc3ccccc3n2S(=O)(=O)c2ccccc2)S1(=O)=O", "N"),
    ("CC(C)(C)N1C(=O)C=C(c2cccs2)S1(=O)=O", "N"),
    ("CC(C)(C)n1c(=O)cc(Cl)[s+]1[O-] (stereo not given)", "N"),
]
